The entries below come with measured EC50 values attached.
Test System: α2AAR (α2A-adrenergic receptor) (Homo sapiens, UniProt P08913)
Construct: expressed in transfected cells; host or cells: HEK293
Test Description: α2AAR FLIPR assay (agonist activity)
Type: cell-based
Measurement Conditions: FLIPR, α2AAR cell line hosted in HEK293 cells; read-out: α2A agonist activity (EC50)

Sample answers from the record:
Molecule	Test System	Reported Property	Endpoint Value
Cc1cccc(C(Cc2ccc(C(=O)O)c(O)c2)c2c[nH]cn2)c1C (stereo not drawn)	α2AAR (α2A-adrenergic receptor) (Homo sapiens, UniProt P08913)	EC50	10 to 50 nM
Cc1cccc(C(Cc2ccc(-c3nnn[nH]3)cc2)c2c[nH]cn2)c1C (stereo not drawn)	α2AAR (α2A-adrenergic receptor) (Homo sapiens, UniProt P08913)	EC50	50 to 250 nM
Cc1cccc(C(c2cccc(NC(=O)CN3CCC(O)CC3)c2)c2c[nH]cn2)c1C (stereo not drawn)	α2AAR (α2A-adrenergic receptor) (Homo sapiens, UniProt P08913)	EC50	10 to 50 nM

What EC50 value was documented for this molecule, Cc1cccc(C(c2cccc(NC(=O)CC3CCS(=O)(=O)CC3)c2)c2c[nH]cn2)c1C (stereo not drawn) ? < 10 nM

Next record, please: COCCCC(=O)Nc1cccc(C(c2c[nH]cn2)c2cccc(C)c2C)c1 (stereo not drawn) 10 to 50 nM

====

The entries below come with measured pEC50 values attached.
Test System: α2AAR (α2A-adrenergic receptor) (Homo sapiens)
Construct: expressed in transfected cells; host or cells: HEK293
Sequence (P08913 1-465): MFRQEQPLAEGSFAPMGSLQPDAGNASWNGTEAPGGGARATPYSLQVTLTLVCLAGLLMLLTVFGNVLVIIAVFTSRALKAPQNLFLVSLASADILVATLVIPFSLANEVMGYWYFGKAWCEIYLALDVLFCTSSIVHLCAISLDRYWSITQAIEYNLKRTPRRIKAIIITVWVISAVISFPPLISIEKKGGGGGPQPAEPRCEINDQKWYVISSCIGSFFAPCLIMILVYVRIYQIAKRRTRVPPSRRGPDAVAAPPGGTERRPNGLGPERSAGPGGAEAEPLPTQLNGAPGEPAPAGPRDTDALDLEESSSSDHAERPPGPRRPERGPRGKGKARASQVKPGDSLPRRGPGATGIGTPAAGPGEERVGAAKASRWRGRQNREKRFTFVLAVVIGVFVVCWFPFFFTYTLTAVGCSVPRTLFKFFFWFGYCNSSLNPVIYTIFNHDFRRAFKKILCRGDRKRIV
Test Description: α2AAR FLIPR assay (agonist activity)
Format: cell-based
Measurement Conditions: FLIPR, α2AAR cell line hosted in HEK293 cells; read-out: α2A agonist activity (EC50)
pEC50: −log10 of the molar value.

Compound	pEC50
CC(=O)Nc1ccc(CC(c2c[nH]cn2)c2cccc(C)c2C)c(F)c1 (stereo not drawn)	7.30 to 8.00
Cc1cccc(C(Cc2ccc(NC(=O)C3CCO3)cc2)c2c[nH]cn2)c1C (stereo not drawn)	7.30 to 8.00
Cc1cccc(C(c2ccc(O)cc2)c2c[nH]cn2)c1C (stereo not drawn)	< 6.00

What pEC50 value was documented for this compound, Cc1cccc(C(c2cccc(NC3(C)COC3)c2)c2c[nH]cn2)c1C (stereo not drawn) ? 6.60 to 7.30

Next record, please: COc1ccccc1C(Cc1cccc(NS(C)(=O)=O)c1)NC1=NCCO1 (stereo not drawn) 6.60 to 7.30

Next record, please: Cc1cccc(C(c2cccc(NC(=O)NC3CC3)c2)c2c[nH]cn2)c1C (stereo not drawn) 7.30 to 8.00

Next record, please: Cc1cccc(C(Cc2ccc(-c3cnnn3C)cc2)c2c[nH]cn2)c1C (stereo not drawn) 7.30 to 8.00

Next record, please: Cc1cccc(C(c2cccc(NS(=O)(=O)CCN3CCOCC3)c2)c2c[nH]cn2)c1C (stereo not drawn) 6.60 to 7.30

Next record, please: Cc1cccc(C(Cc2cccc(NC(=O)CC3CCOCC3)c2)c2c[nH]cn2)c1C (stereo not drawn) 7.30 to 8.00

Next record, please: Cc1cccc(C(c2cccc(C(N)=O)c2)c2c[nH]cn2)c1C (single isomer, unassigned) [5-A] < 6.00

Next record, please: Cc1cccc(C(c2cccc(NC(=O)N3CCCCC3)c2)c2c[nH]cn2)c1C (stereo not drawn) 7.30 to 8.00

Next record, please: Cc1cccc(C(Cc2ccc(NC(=O)C3CCOCC3)nc2)c2c[nH]cn2)c1C (stereo not drawn) 7.30 to 8.00

Next record, please: Cc1cccc(C(c2cccc(NC(=O)CCN3CCCC3)c2)c2c[nH]cn2)c1C (stereo not drawn) 6.60 to 7.30
